- Tested on: AGP
- TEST METHOD NOTES: Literature % binding to AGP by equilibrium dialysis (calibration set)
- CONDITION DETAILS: log k = log (%binding/(101-%binding)) from literature % binding
Rule: log k AGP of 0.1 or more gives fulfilled; anything lower gives not fulfilled.

COc1cc(Cc2cnc(N)nc2N)cc(OC)c1OC ... not fulfilled

// query I'd appreciate it if you could say whether CC(=O)Nc1ccc(O)cc1 has log k AGP at least equal to 0.1.
// result not fulfilled

// query Decide: is the reported value of log k AGP for NC(=O)N1c2ccccc2C=Cc2ccccc21 [Carbamazepine] equal to or greater than 0.1?
// result fulfilled

// query Could you please find out whether COC(=O)C1=C(C)NC(C)=C(C(=O)OCCN(C)Cc2ccccc2)C1c1cccc([N+](=O)[O-])c1 (centres unmarked) has log k AGP that meets 0.1 or exceeds it?
// result fulfilled

// query Textbook exercise: given the entry CC(C)NCC(O)COc1cccc2ccccc12 (centres unmarked) , state whether its log k AGP is greater than or equal to 0.1.
// result fulfilled

// query Is reported log k AGP greater than or equal to 0.1 here: O=C(O)Cc1ccccc1Nc1c(Cl)cccc1Cl
// result fulfilled

// query Is the recorded value of log k AGP equal to or greater than 0.1 for this molecule? CNC(=C[N+](=O)[O-])NCCSCc1csc(CN(C)C)n1
// result not fulfilled

----------
# reported CHI IAM; entries follow
- TEST METHOD NOTES: Phospholipid binding at pH 7.4 on IAM PC.DD2 HPLC column
- Format: physicochemical
- Design: key: approximates acetonitrile concentration (%) in mobile phase at elution
- CONDITION DETAILS: pH 7.4
# output: bare number, no unit

Study these solved cases before continuing.
COc1ccc([C@@H]2Sc3ccccc3N(CCN(C)C)C(=O)[C@@H]2OC(C)=O)cc1 ... 41.95
COc1ccc2c(c1)c(CC(=O)O)c(C)n2C(=O)c1ccc(Cl)cc1 ... 30.11
CC(=O)N1CCN(c2ccc(OCC3COC(Cn4ccnc4)(c4ccc(Cl)cc4Cl)O3)cc2)CC1 (stereo not shown) ... 37.86

Alright, here's another molecule for you.
// query Which CHI IAM is reported for this molecule? Clc1ccc(COC(Cn2ccnc2)c2ccc(Cl)cc2Cl)c(Cl)c1 (stereo not shown)
// result 53.72

----------
- TEST METHOD NOTES: CHI lipophilicity by gradient reversed-phase HPLC (Gemini NX-C-18)
- CONDITION DETAILS: reversed-phase HPLC, Gemini NX-C-18 column (50 x 3 mm, 5 µm)
EXPERIMENTAL ENDPOINT: chromatographic logP
Response field accepts a number only; no unit should be typed.

Completed entries (count: 6):
CCCCC1=NC2(CCCC2)C(=O)N1Cc1ccc(-c2ccccc2-c2nnn[nH]2)cc1 ... 2
CCCCN1CCCC[C@H]1C(=O)Nc1c(C)cccc1C ... 4.2
CCOC(=O)C1=C(C)NC(C)=C(C(=O)OC)C1c1cccc([N+](=O)[O-])c1 (stereo not drawn) ... 3.19
OCCN1CCN(CCCN2c3ccccc3Sc3ccc(Cl)cc32)CC1 ... 3.5
CCCOC(C(=O)OC1CCN(C)CC1)(c1ccccc1)c1ccccc1 ... 5.05
Clc1ccc(COC(Cn2ccnc2)c2ccc(Cl)cc2Cl)c(Cl)c1 (stereo not drawn) ... 4.7

// query What does the record list as chromatographic logP for CN(C)CCC(c1ccc(Br)cc1)c1ccccn1 (stereo not drawn) ?
// result 4.27

// query State the recorded chromatographic logP for this entry: O=C1NC(=O)C(c2ccccc2)(c2ccccc2)N1
// result 1.85

// query Recorded chromatographic logP of CSc1ccc2c(c1)N(CCC1CCCCN1C)c1ccccc1S2 (stereo not drawn) , please.
// result 5.46
